Tested on: SW1710 (Bladder Carcinoma)
PROTOCOL SUMMARY: combination Emax (second highest fraction inhibited in the dose matrix, 72 h); higher = more inhibition; extreme values may be limits of the assay
MEASURE: combination Emax

With SW1710 (Bladder Carcinoma) as the test system, CN(CCO)CC[C@H](CSc1ccccc1)Nc1ccc(S(=O)(=O)NC(=O)c2ccc(N3CCC([C@@H](O)c4ccccc4-c4ccc(Cl)cc4)CC3)cc2)cc1S(=O)(=O)C(F)(F)F [AZD4320] + CCN(CCO)CCCOc1ccc2c(Nc3cc(CC(=O)Nc4cccc(F)c4)[nH]n3)ncnc2c1 [AZD2811] (first compound max 1 µM, 7x7, partner max 1 µM) showed combination Emax of 0.154

With SW1710 (Bladder Carcinoma) as the test system, COc1nnc2ccc(N3CCC(c4ccc(OCCN5CCN(C)C(=O)[C@H]5C)cc4)CC3)nn12 [AZD5153] + CCN(CCO)CCCOc1ccc2c(Nc3cc(CC(=O)Nc4cccc(F)c4)[nH]n3)ncnc2c1 [AZD2811] (first compound max 1 µM, 7x7, partner max 1 µM) showed combination Emax of 0.33

With SW1710 (Bladder Carcinoma) as the test system, CN(C)CCCOc1ccc(-c2ccc3ncc4c(c3c2)n(C2CCOCC2)c(=O)n4C)cn1 [AZD0156] + C[C@@H]1COCCN1C2=NC(=NC(=C2)C3(CC3)[S@](=N)(=O)C)C4=C5C=CNC5=NC=C4 [AZD6738] (first compound max 1 µM, 7x7, partner max 10 µM) showed combination Emax of 0.509

====

System: SNU-16 (Gastric Carcinoma)
PROTOCOL SUMMARY: combination Emax (second highest fraction inhibited in the dose matrix, 72 h); higher = more inhibition; extreme values may be limits of the assay
I'd appreciate it if you could supply combination Emax values for the items below.
Number only, please.

With SNU-16 (Gastric Carcinoma) as the test system, Cn1cnc2c(F)c(Nc3ccc(Br)cc3Cl)c(C(=O)NOCCO)cc21 [Selumetinib] + CC(C)n1c(=O)n(C)c2cnc3cc(F)c(-c4ccc(OCCCN5CCCCC5)nc4)cc3c21 [AZD1390] (first compound max 10 µM, 7x7, partner max 0.3 µM) showed combination Emax of 0.36

With SNU-16 (Gastric Carcinoma) as the test system, COc1nnc2ccc(N3CCC(c4ccc(OCCN5CCN(C)C(=O)[C@H]5C)cc4)CC3)nn12 [AZD5153] + C[C@@H]1COCCN1C2=NC(=NC(=C2)C3(CC3)[S@](=N)(=O)C)C4=C5C=CNC5=NC=C4 [AZD6738] (first compound max 1 µM, 7x7, partner max 10 µM) showed combination Emax of 0.98

With SNU-16 (Gastric Carcinoma) as the test system, CN(CCO)CC[C@H](CSc1ccccc1)Nc1ccc(S(=O)(=O)NC(=O)c2ccc(N3CCC([C@@H](O)c4ccccc4-c4ccc(Cl)cc4)CC3)cc2)cc1S(=O)(=O)C(F)(F)F [AZD4320] + Cc1cc2ncnn2cc1Nc1ncc2c(n1)n(C1CCOCC1)c(=O)n2C [AZD7648] (first compound max 1 µM, 7x7, partner max 10 µM) showed combination Emax of 0.3

====

Test system: SAS (Oral Cavity Carcinoma)
PROTOCOL SUMMARY: Bliss excess, mean over the matrix (fraction); higher = more synergy
I'd appreciate it if you could supply Bliss excess values for the items below.

Recorded result, C=CCn1c(=O)c2cnc(Nc3ccc(N4CCN(C)CC4)cc3)nc2n1-c1cccc(C(C)(C)O)n1 [AZD1775] + C[C@@H]1COCCN1C2=NC(=NC(=C2)C3(CC3)[S@](=N)(=O)C)C4=C5C=CNC5=NC=C4 [AZD6738] (first compound max 1 µM, partner max 10 µM) , Bliss excess: 0.0138

Recorded result, C[C@@H]1COCCN1c1cc(C2([S@](C)(=N)=O)CC2)nc(-c2ccnc3[nH]ccc23)n1 [AZD6738] + O=C(c1cc(Cc2n[nH]c(=O)c3ccccc23)ccc1F)N1CCN(C(=O)C2CC2)CC1 [Olaparib] (first compound max 10 µM, 7x7, partner max 10 µM) , Bliss excess: -0.0361

Recorded result, CC(=O)c1c(C)c2cnc(Nc3ccc(N4CCNCC4)cn3)nc2n(C2CCCC2)c1=O [Palbociclib] + Cn1cnc2c(F)c(Nc3ccc(Br)cc3Cl)c(C(=O)NOCCO)cc21 [Selumetinib] (first compound max 10 µM, 7x7, partner max 10 µM) , Bliss excess: -0.0084

Recorded result, COc1cccc(OCCCN)c1-c1cc(Nc2cnc(C#N)cn2)n[nH]1 [Prexasertib] + C=CCn1c(=O)c2cnc(Nc3ccc(N4CCN(C)CC4)cc3)nc2n1-c1cccc(C(C)(C)O)n1 [AZD1775] (first compound max 1 µM, partner max 1 µM) , Bliss excess: 0.0405

Recorded result, COc1nnc2ccc(N3CCC(c4ccc(OCCN5CCN(C)C(=O)[C@H]5C)cc4)CC3)nn12 [AZD5153] + Cn1cnc2c(F)c(Nc3ccc(Br)cc3Cl)c(C(=O)NOCCO)cc21 [Selumetinib] (first compound max 1 µM, 7x7, partner max 10 µM) , Bliss excess: 0.0163

Recorded result, CC1(C)CCC(CN2CCN(c3ccc(C(=O)NS(=O)(=O)c4ccc(NCC5CCOCC5)c([N+](=O)[O-])c4)c(Oc4cnc5[nH]ccc5c4)c3)CC2)=C(c2ccc(Cl)cc2)C1 [Venetoclax] + C=CCn1c(=O)c2cnc(Nc3ccc(N4CCN(C)CC4)cc3)nc2n1-c1cccc(C(C)(C)O)n1 [AZD1775] (first compound max 1 µM, partner max 1 µM) , Bliss excess: -0.0073

Recorded result, C[C@@H]1COCCN1c1cc(C2([S@](C)(=N)=O)CC2)nc(-c2ccnc3[nH]ccc23)n1 [AZD6738] + C1CC(C1)(C(=O)[O-])C(=O)[O-].N.N.[Pt+2] [Carboplatin] (first compound max 10 µM, 7x7, partner max 10 µM) , Bliss excess: -0.0459

Recorded result, CC1(C)CCC(CN2CCN(c3ccc(C(=O)NS(=O)(=O)c4ccc(NCC5CCOCC5)c([N+](=O)[O-])c4)c(Oc4cnc5[nH]ccc5c4)c3)CC2)=C(c2ccc(Cl)cc2)C1 [Venetoclax] + C[C@@H](Nc1cc(F)cc(F)c1)c1cc(C(=O)N(C)C)cc2c(=O)cc(N3CCOCC3)oc12 [AZD8186] (first compound max 1 µM, 7x7, partner max 3 µM) , Bliss excess: -0.0332

Recorded result, COc1cccc(OCCCN)c1-c1cc(Nc2cnc(C#N)cn2)n[nH]1 [Prexasertib] + CCc1c2c(nc3ccc(O)cc13)-c1cc3c(c(=O)n1C2)COC(=O)[C@]3(O)CC [SN-38] (first compound max 1 µM, 7x7, partner max 0.3 µM) , Bliss excess: -0.0246

Recorded result, C[C@@H](Nc1cc(F)cc(F)c1)c1cc(C(=O)N(C)C)cc2c(=O)cc(N3CCOCC3)oc12 [AZD8186] + C1CN(CCC1(C(=O)N[C@@H](CCO)C2=CC=C(C=C2)Cl)N)C3=NC=NC4=C3C=CN4 [AZD5363] (first compound max 10 µM, 7x7, partner max 10 µM) , Bliss excess: -0.0226

====

Test system: TGBC1TKB (Biliary Tract Carcinoma)
PROTOCOL SUMMARY: combination Emax (second highest fraction inhibited in the dose matrix, 72 h); higher = more inhibition; extreme values may be limits of the assay
I'd appreciate it if you could supply combination Emax values for the items below.
Number only, please.

Recorded result, CC1(C)CCC(CN2CCN(c3ccc(C(=O)NS(=O)(=O)c4ccc(NCC5CCOCC5)c([N+](=O)[O-])c4)c(Oc4cnc5[nH]ccc5c4)c3)CC2)=C(c2ccc(Cl)cc2)C1 [Venetoclax] + C[C@@H](Nc1cc(F)cc(F)c1)c1cc(C(=O)N(C)C)cc2c(=O)cc(N3CCOCC3)oc12 [AZD8186] (first compound max 1 µM, 7x7, partner max 3 µM) , combination Emax: 0.526

Recorded result, N#Cc1cnc(Nc2cc(NC[C@H]3CNCCO3)c(C(F)(F)F)cn2)cn1 [SRA737] + C=CCn1c(=O)c2cnc(Nc3ccc(N4CCN(C)CC4)cc3)nc2n1-c1cccc(C(C)(C)O)n1 [AZD1775] (first compound max 10 µM, partner max 1 µM) , combination Emax: 0.271

====

Test system: BE2-M17 (Neuroblastoma)
PROTOCOL SUMMARY: Bliss excess, mean over the matrix (fraction); higher = more synergy
I'd appreciate it if you could supply Bliss excess values for the items below.
Number only, please.

With BE2-M17 (Neuroblastoma) as the test system, C=CCn1c(=O)c2cnc(Nc3ccc(N4CCN(C)CC4)cc3)nc2n1-c1cccc(C(C)(C)O)n1 [AZD1775] + O=C(c1cc(Cc2n[nH]c(=O)c3ccccc23)ccc1F)N1CCN(C(=O)C2CC2)CC1 [Olaparib] (first compound max 1 µM, partner max 10 µM) showed Bliss excess of -0.0486

With BE2-M17 (Neuroblastoma) as the test system, CC1(C)CCC(CN2CCN(c3ccc(C(=O)NS(=O)(=O)c4ccc(NCC5CCOCC5)c([N+](=O)[O-])c4)c(Oc4cnc5[nH]ccc5c4)c3)CC2)=C(c2ccc(Cl)cc2)C1 [Venetoclax] + CN(C)CCCOc1ccc(-c2ccc3ncc4c(c3c2)n(C2CCOCC2)c(=O)n4C)cn1 [AZD0156] (first compound max 1 µM, 7x7, partner max 1 µM) showed Bliss excess of 0.0093

With BE2-M17 (Neuroblastoma) as the test system, COc1nnc2ccc(N3CCC(c4ccc(OCCN5CCN(C)C(=O)[C@H]5C)cc4)CC3)nn12 [AZD5153] + C=CCn1c(=O)c2cnc(Nc3ccc(N4CCN(C)CC4)cc3)nc2n1-c1cccc(C(C)(C)O)n1 [AZD1775] (first compound max 1 µM, partner max 1 µM) showed Bliss excess of 0.0026

With BE2-M17 (Neuroblastoma) as the test system, CS(=O)(=O)CCNCc1ccc(-c2ccc3ncnc(Nc4ccc(OCc5cccc(F)c5)c(Cl)c4)c3c2)o1 [Lapatinib] + C[C@@H](Oc1cc(-c2cnn(C3CCNCC3)c2)cnc1N)c1c(Cl)ccc(F)c1Cl [Crizotinib] (first compound max 10 µM, 7x7, partner max 10 µM) showed Bliss excess of -0.0652

With BE2-M17 (Neuroblastoma) as the test system, CCN(CCO)CCCOc1ccc2c(Nc3cc(CC(=O)Nc4cccc(F)c4)[nH]n3)ncnc2c1 [AZD2811] + C=CCn1c(=O)c2cnc(Nc3ccc(N4CCN(C)CC4)cc3)nc2n1-c1cccc(C(C)(C)O)n1 [AZD1775] (first compound max 1 µM, partner max 1 µM) showed Bliss excess of 0.0436

With BE2-M17 (Neuroblastoma) as the test system, COc1cccc(OCCCN)c1-c1cc(Nc2cnc(C#N)cn2)n[nH]1 [Prexasertib] + CN(C)CCCOc1ccc(-c2ccc3ncc4c(c3c2)n(C2CCOCC2)c(=O)n4C)cn1 [AZD0156] (first compound max 1 µM, 7x7, partner max 1 µM) showed Bliss excess of -0.0185

With BE2-M17 (Neuroblastoma) as the test system, NC1(C(=O)N[C@@H](CCO)c2ccc(Cl)cc2)CCN(c2ncnc3[nH]ccc23)CC1 [Capivasertib] + C[C@@H]1COCCN1C2=NC(=NC(=C2)C3(CC3)[S@](=N)(=O)C)C4=C5C=CNC5=NC=C4 [AZD6738] (first compound max 10 µM, 7x7, partner max 10 µM) showed Bliss excess of -0.0034
